System: K4 kissing-loop RNA reporter
Experiment notes: apparent KD of K4 kissing-loop reporter; higher = weaker reporter binding
Reported conditions: Eterna round: R107; input ligand: FMN 200 uM
Quick rule for you: apparent KD of K4 kissing-loop reporter at 200 nM or higher means label 1, lower means label 0.

As a guide, the following entries are already answered.
UGUAAGUGUCAGCGAGUGAUGUUCGACGAUACCAGACUCGAUAGAGUCCCUUGGCAGCGUAAUGCAUGCCAAACUGGCACAUACU [#SwitchBubble 11 #K4Early]	label 1
AGCCGAAAGGCGAGUGCUGUCGCUCCGGAAGGAGCGCAGGAAACUGCAGGUAGGUCGCCGGAGUGAUGUUUUGGUGCAGCACUCA [Omei KL Arginine A Exc B v7]	label 0
AGGAUCACGUCAGUGAUGUUGACAAGAGAUACCAGAGACGAAAGUCUCCCUUGGCAGCUCACUGUGAUCCGUGACAAAGGUCACA [Omei KL hio A SS C v1]	label 0
UCGAACGAUGGAAGGAGCGCUCGUCAGUCCUGCGAGUGAUGUUCGUGGGUAAAUAGUCGCGAGCAGGUAGGUCGCCAUCUUGAGC [Indiermaar]	label 0

Incoming: Threshold query (apparent KD of K4 kissing-loop reporter >= 200 nM) on UGUACCGAGUCAGGAUAUGCCGUCGAAAGACGAAAGCAGUGAUGUUGCAUCGAUCGAAAGAUCGUUGCAGAAGGGACUUGGUACU [FmnBS 23 #SwitchBubble #StaticStem #DoubleMagnetSystem]
Outgoing: label 1

Incoming: Threshold query (apparent KD of K4 kissing-loop reporter >= 200 nM) on AAAUCGUUCAGAAGGAGCGUGGAUUAUUCUUAAAUAUUUAUUACGAGUGAUGUUCGUAAUUCACAGGUAGGUCGCUGAUCGAUAA [JR_ExcArginiB_Sub003]
Outgoing: label 0

====

System: MS2 coat protein
Experiment notes: apparent KD of MS2 coat protein; higher = weaker reporter binding
Reported conditions: Eterna round: R107; input ligand: theophylline 2 mM
Quick reference: apparent KD of MS2 coat protein of the listed items.
Report the value in nM with no unit label.

UCAUAAGUACCGGUCCUCAGAUCCUCAUGACGAGGACCGGUACGGCCGCCACUCGAAACAUGAGGAUCACCCAUGUAAUAAUACU [Brourdmod15]	31.9

Incoming: Output measured apparent KD of MS2 coat protein for this item: GGAUGGAACUCGGCCGCCACUGGUGAUCCUAAUGUACAUGAGGAUCACCCAUGUACAUGAGAAGAUAGGACCGGGAGAUAACAUG [V5]
Outgoing: 29.4

Incoming: Output measured apparent KD of MS2 coat protein for this item: GGCAGUCAUAGCAGGGCAAAUAUACUCGAAGGAGCGUCAUAGUAGGCAGGUAGGUCGCGAGACAUGAGGAUCACCCAUGUAGAGA [uuumullin]
Outgoing: 66

====

Quick reference: apparent KD of K4 kissing-loop reporter of the listed items.
Test system: K4 kissing-loop RNA reporter
Experiment notes: apparent KD of K4 kissing-loop reporter; higher = weaker reporter binding
Reported conditions: Eterna round: R107; input ligand: arginine 13.2 mM
The reply should consist of the numeric value with the unit placed after it.

Worked set:
GGCGGCCGCGCGAAAGCGCGGCCGGCCGAUACCAGCGCGACGGCGCGCCCUUGGCAGCGGCGCCGAGUGAUGUUCGGCCUGCCGU [#2 Same State - Theophylline A Attempt #13 (HarryS)]	122 nM
UGUACCGAGUCAGGAUAUGCCGUCGAAAGACGAAAGCAGUGAUGUUGCAUCGAUCGAAAGAUCGUUGCAGAAGGGACUUGGUACU [FmnBS 23 #SwitchBubble #StaticStem #DoubleMagnetSystem]	164 nM
GUACCUUGGAAACAAGGACCGCUAACCGAAGGAGCGCGUGAAAACGCAGGUAGGUCGCGGUAGCGGAGUGAUGUUCCGCGAGAGG [Excluson Arginine A GF 14]	235 nM
AAACAGCACUGGGAGUGAUGUUCUCAGUGACGAGGACCGGUACGGCCGCCACUCGCGAGAGAACUAGUCUAGACUUGACUGCAUA [Excl Tryptophan A V15]	138 nM
AUUUAAUUAACUGAUACCAGACUUUUUGUUUUGUUUAUUACUAGUGAUGUUAGUGUUUCUGUCCCUUGGCAGCAGUAUCUACUUA [JR_ExcTheophyB_Sub015]	202 nM
CGUUUAUUGCAGGAUACCAGUACCCAUUAUGUACGUUUAUAGUAGAGUGAUGUUCUAAAGUACCCUUGGCAGCUUCCCGUGACCC [#22 K4 Theophylline B Exclusion]	193 nM

Incoming: Output measured apparent KD of K4 kissing-loop reporter for this item: AGAGAGGUGUUUUUUUGAAGUGAGUAAUGGCGAGGACCGGUACGGCCGCCACUCGGGUGAUGUUAGUGAUGUUGAUGUAGUGAUG [yrymullin]
Outgoing: 60.8 nM

Incoming: Output measured apparent KD of K4 kissing-loop reporter for this item: CGCCACGACUGAAGGAGCGCGCCAGUGAUGUUGGACGGCUUUGUCAAGGAAACUGCACCGGUGCAGGUAGGUCGCAGUUCGUGGU [Quisbiri]
Outgoing: 421 nM

Incoming: Output measured apparent KD of K4 kissing-loop reporter for this item: AUACCUCUACGAGUGAUGUUUGUUGAGGAUACCAGCAUGUAUAGUUGCCCUUGGCAGCCUUGGCUCGUGCGCUCCCUCCGAACCG [theeternabot_exclusion_KL_Theo_A_30]
Outgoing: 240 nM

Incoming: Output measured apparent KD of K4 kissing-loop reporter for this item: UGUAUGUGAUUUGAUACCAGACCAGCUGGUGGUAUCUGAGUGAUGUUCAGGUAGGUUUGGGUCCCUUGGCAGCAAAUCGCAUACU [KL-SSTheoB26]
Outgoing: 118 nM

Incoming: Output measured apparent KD of K4 kissing-loop reporter for this item: ACCUAGUAGACAGGAUAUCACCAUGACAGUGAUGUUGUCAUGCUCGAUUUGAGGAAACUCAGAUCGUGAGAAGGGUCUAACGACU [FMN B SS t7]
Outgoing: 149 nM

====

Quick reference: apparent KD of K4 kissing-loop reporter of the listed items.
Tested on: K4 kissing-loop RNA reporter;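 further: bound reporter read as fluorescence of individual clusters on recovered sequencing chips by microscopy, with normalized cluster intensities fitted with a binding model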
Experiment notes: apparent KD of K4 kissing-loop reporter; higher = weaker reporter binding
Reported conditions: Eterna round: R107; input ligand: arginine 13.2 mM
Report the value in µM with no unit label.

Worked set:
GUGCAGUGAUGUUGCACGAGGAAAGACGAUACCAGCCGUAAAUAAGGCCCUUGGCAGCGUGGGCUAGCAUAAAGUACGCUAGUCU [Mara]	0.115
AUAUCUAGAGUGAUGUUCUAGUAAGCUGAAGGAGCGGACGAAAGUCCAGGUAGGUCGCAGUGUUUUUACACCUCAUGUGUAGGAG [KL-SSArg-A7 #analogue]	0.128
AGCCGAAAGGCGAGUGCUGUCGCUCCGGAAGGAGCGCAGGAAACUGCAGGUAGGUCGCCGGAGUGAUGUUUUGGUGCAGCACUCA [Omei KL Arginine A Exc B v7]	0.218
UGAUACCAGACUGAUACCAGCAAGUGAUGUUUGUUGAUCUAUGCAGUCAAAGACUGCUCUUGCCCUUGGCAGCAGUCUGGUAUCU [TheoBX 28 #SwitchBubble #StaticStem]	0.64
CAUUCGAAAUGCAGUGAUGUUGCAACCGAUACCAGUAUCGAAAGAUACCCUUGGCAGCGGAAAACCGCUACGUAUUUUUUGAAUG [Ex Theophylline A K4 26]	0.288

Please turn your attention to the following entry.
Incoming: Output measured apparent KD of K4 kissing-loop reporter for this item: UCCUGCAAUCUGCCACGAAAGUGGAUUGAUACCAGAGUCGAAAGACUCCCUUGGCAGCGAGUGAUGUUCGUUGCAGGUAAAUAAA [MatMod 7 - Jieux - Exclusion - Theophylline A]
Outgoing: 0.178

====

Tested on: MS2 coat protein
Experiment notes: apparent KD of MS2 coat protein; designed switch direction (-1 OFF switch, 1 ON switch): 1; higher = weaker reporter binding
Reported conditions: input ligand: FMN 200 uM
Quick rule for you: apparent KD of MS2 coat protein at 20 nM or higher means T, lower means F.

AAAAAACAUGAGGAUCACCCAUGUAAAAAAAUGGGAGGAUAUACAAAAACAAAAAAAAAAGUAGAAGGCCUGAAAA [same state 9] (Eterna round: R96, puzzle: Same State 1)	T
GGAGCUGUUAUAGGAUAUCCCGCGCAUUACGCGGGAGAAGGGUGACGCUCACAUGAGGAUCACCCAUGUGGCGUUCCAAAAUAA [Rate] (Eterna round: R96, puzzle: Same State NG 1)	F
GGAGCCGGCCUAGGAUAUUUCAUAAUAAUACAUGAGGAUCACCCAUGUAGGCCAGAAGGCCUUGGGAAGAAGGAGGUCGGCUCC [Loop Effect - U26,U29] (Eterna round: R96, puzzle: Same State NG 2)	F
GUGGUCUGACAUGAGGAUCACCCAUGUGGAAUAAAUAAGGGUUAGGAUAUCUUGAGGAUCACCCAAGAGAAGGGAUGGUUGGUG (Eterna round: R96, puzzle: Same State NG 3)	T
GAGCCAGUCCGAGGAUAUUCAUUAAAUUAAAUACAUGAGGAUCACCCAUGUAGGCGAGAGCCUUGGGAGAAGGCGGACUGGCUC [Xeonanisa>>4] (Eterna round: R96, puzzle: Same State NG 2)	F

Incoming: Threshold query (apparent KD of MS2 coat protein >= 20 nM) on UUGCUCGUGUGAGGAUAUGCAGCCGUUUCGGCUGCAGAAGGUACUAUAAUACAUGAGGAUCACCCAUGUCUCUAUUGUUUAGUG [salish99_SSNG1_r04_927] (Eterna round: R96, puzzle: Same State NG 1)
Outgoing: T

Incoming: Threshold query (apparent KD of MS2 coat protein >= 20 nM) on UGGCUGGUGCUAGGAUAUGCAUGAGGCCUCCUCGUAGAAGGAGCACGACAUGAGGAUCACCCAUGUGGCCGUCCGUGGGCGGCU [salish99_SSNG1_r04_015] (Eterna round: R96, puzzle: Same State NG 1)
Outgoing: T

Incoming: Threshold query (apparent KD of MS2 coat protein >= 20 nM) on UGCAUACGCCUACAAGAGGAGUCCUGCAGACAUGAGGAUCACCCAUGUAACUCGAAUUCAGUUCGUUCGUCUGUCGU [JR_hsamir208a_Sub1412] (Eterna round: R96, puzzle: Sensor for hsa-mir-208a)
Outgoing: T
